Give IC50 for every item shown.
# system_tested: G-protein coupled receptor 55 (Homo sapiens)
# Sequence (Q9Y2T6 whole entry): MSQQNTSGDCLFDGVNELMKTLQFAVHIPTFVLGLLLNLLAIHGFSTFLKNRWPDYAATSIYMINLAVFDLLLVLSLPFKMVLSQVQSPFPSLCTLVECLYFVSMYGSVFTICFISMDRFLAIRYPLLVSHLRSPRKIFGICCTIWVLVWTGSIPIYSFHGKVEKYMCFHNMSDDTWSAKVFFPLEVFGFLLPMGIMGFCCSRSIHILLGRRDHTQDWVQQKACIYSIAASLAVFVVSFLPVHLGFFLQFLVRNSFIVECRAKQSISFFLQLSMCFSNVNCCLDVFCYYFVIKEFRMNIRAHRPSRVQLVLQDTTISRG
# assay_method_text: inhibition of LPI-stimulated GPR55 beta-arrestin translocation – imaging, U2OS, beta-arrestin-GFP, LPI agonist, primary screen (AID 2013);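 also: antagonist potency measured as reduced agonist-driven arrestin aggregation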
# Type: functional
Calls of active or inactive are those of the source.

-- ask # get_value(readout='IC50', item= CCSc1nnc(-c2sc3nnc(-c4ccccc4)c(-c4ccccc4)c3c2N)o1 )
-- reply 2440 nM (active)

-- ask Would you kindly repeat that for O=C(Nc1ccccc1N1CCCCC1)c1ccc(N2C(=O)c3ccccc3C2=O)cc1 ?
-- reply 1990 nM (active)

-- ask Cool, now CC(C)CN=C(NS(=O)(=O)c1ccccc1)C(Cl)(Cl)Cl
-- reply 2020 nM (active)

-- ask CN(CC(O)CON=C1c2ccccc2-c2ccccc21)S(=O)(=O)c1ccc(Br)cc1 (stereo not given) ?
-- reply 2140 nM (active)

-- ask Now this one: CCOC(=O)c1nc(Nc2ccc(Nc3ccccc3)cc2)c2ccccc2n1
-- reply 2480 nM (active)

====

Could you please report measured AC50 for the items listed next?
# system_tested: Heat shock protein HSP 90-alpha (Homo sapiens, UniProt P07900)
# Assay type: functional, organism-based
Active and inactive are the calls of the source.

-- ask Query AC50 on Heat shock protein HSP 90-alpha (Homo sapiens, UniProt P07900) for Cc1nn(-c2ccc([N+](=O)[O-])cc2)c(O)c1/C=N/CCN1CCN(C(=O)c2cccc(F)c2)CC1
-- reply 5990 nM (active)

-- ask How about this compound: O=C(NN1C(=O)/C(=C/c2ccc(O)c([N+](=O)[O-])c2)SC1=S)c1ccccc1Cl
-- reply 2860 nM (active)

-- ask How about this compound: CCCC(=O)NC1=C(Cl)C(=O)c2ccccc2C1=O
-- reply < 195 nM (active)

-- ask Also need Oc1ccc2ccccc2c1N=Nc1nccs1 , thanks.
-- reply 932 nM (active)

-- ask One more compound: C[C@@]12C(=O)Nc3ccc(Br)cc3C(=O)N1[C@H]1c3ccccc3OC[C@@H]1[C@@H]2c1ccccc1
-- reply 427 nM (active)

====

# system_tested: Corticotropin-releasing factor receptor 2/Corticotropin-releasing factor-binding protein (Homo sapiens, UniProt P24387+Q13324)
# Sequence (Q13324 whole entry): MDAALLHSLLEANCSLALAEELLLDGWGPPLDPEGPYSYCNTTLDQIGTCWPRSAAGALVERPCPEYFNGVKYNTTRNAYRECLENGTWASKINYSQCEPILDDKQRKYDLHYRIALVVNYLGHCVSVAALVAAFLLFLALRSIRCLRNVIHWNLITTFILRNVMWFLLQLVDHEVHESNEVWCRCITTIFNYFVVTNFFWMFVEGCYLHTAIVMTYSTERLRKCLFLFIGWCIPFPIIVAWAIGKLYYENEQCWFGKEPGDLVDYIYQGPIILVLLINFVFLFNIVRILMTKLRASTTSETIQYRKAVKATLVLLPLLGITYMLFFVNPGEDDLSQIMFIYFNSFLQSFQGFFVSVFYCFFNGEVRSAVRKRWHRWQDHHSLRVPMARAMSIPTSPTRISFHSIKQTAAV
# Sequence (P24387 whole entry): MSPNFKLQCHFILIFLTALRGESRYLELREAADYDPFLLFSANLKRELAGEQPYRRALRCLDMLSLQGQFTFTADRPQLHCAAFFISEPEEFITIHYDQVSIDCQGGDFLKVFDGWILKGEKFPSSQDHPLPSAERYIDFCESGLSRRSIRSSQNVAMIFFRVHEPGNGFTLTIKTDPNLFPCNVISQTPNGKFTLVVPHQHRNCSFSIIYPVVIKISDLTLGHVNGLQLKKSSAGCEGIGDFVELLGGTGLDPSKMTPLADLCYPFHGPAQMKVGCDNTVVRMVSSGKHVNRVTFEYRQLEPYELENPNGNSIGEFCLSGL
# assay_method_text: activators of CRF receptor 2 with binding protein – uHTS hits, confirmation (AID 602473)
# Format: functional
# measurement_conditions: read-out: EC50_Mean
Calls of active or inactive are those of the source.
// allowed return values: 1 for active, 0 for inactive

-- ask What is the recorded call for this compound in the test? OC(C#CCN1CCCCCC1)(c1ccccc1)c1cccnc1 (stereo unspecified)
-- reply 0

-- ask Please give the result for COCCn1c(C)cc(C(=O)COC(=O)c2cc3c(s2)CCC3)c1C too.
-- reply 0

-- ask Cool, now O=C(/C=C/c1ccc2ccccc2n1)N1CCN(c2ccccc2)CC1
-- reply 0

-- ask Cool, now COC1(OC)C=CC(=O)C=C1NC(=O)c1ccccc1OC(C)=O
-- reply 0

-- ask Note, next up: COc1ccc(CCNC2=C(Cl)C(=O)N(Cc3ccccc3)C2=O)cc1OC
-- reply 0

-- ask Also, Cc1ccc(N2CC(C(=O)NC3CCC(C)CC3)CC2=O)cc1 (stereo unspecified) please.
-- reply 0

-- ask Now the compound CC(C)(C)NC(=O)C(c1ccccn1)N(C(=O)C1CSC(=O)C1)c1cccc(F)c1 (stereo unspecified)
-- reply 0

-- ask Item: Clc1ccc(C2=CC(c3ccco3)n3ncnc3N2)cc1 (stereo unspecified)
-- reply 1

-- ask # repeat for Cc1cccc(-c2nc(C[S+]([O-])CC(=O)N3CC(C)CC(C)C3)c(C)o2)c1 (stereo unspecified)
-- reply 0

-- ask Same question for CS(=O)(=O)c1ccc(C(=O)CN2C(=O)NC3(CCCc4ccccc43)C2=O)cc1 (stereo unspecified) please.
-- reply 0

-- ask What about O=S(=O)(c1ccccc1)c1cnn(-c2ccccc2)c1-c1ccc(F)cc1 ?
-- reply 0
